KBSA, Stern–Volmer quenching constant for assorted compounds
- measurementTarget: BSA (Bos taurus, UniProt P02769)
- Construct: purchased Himedia Chemicals
- Sequence (P02769 25-607): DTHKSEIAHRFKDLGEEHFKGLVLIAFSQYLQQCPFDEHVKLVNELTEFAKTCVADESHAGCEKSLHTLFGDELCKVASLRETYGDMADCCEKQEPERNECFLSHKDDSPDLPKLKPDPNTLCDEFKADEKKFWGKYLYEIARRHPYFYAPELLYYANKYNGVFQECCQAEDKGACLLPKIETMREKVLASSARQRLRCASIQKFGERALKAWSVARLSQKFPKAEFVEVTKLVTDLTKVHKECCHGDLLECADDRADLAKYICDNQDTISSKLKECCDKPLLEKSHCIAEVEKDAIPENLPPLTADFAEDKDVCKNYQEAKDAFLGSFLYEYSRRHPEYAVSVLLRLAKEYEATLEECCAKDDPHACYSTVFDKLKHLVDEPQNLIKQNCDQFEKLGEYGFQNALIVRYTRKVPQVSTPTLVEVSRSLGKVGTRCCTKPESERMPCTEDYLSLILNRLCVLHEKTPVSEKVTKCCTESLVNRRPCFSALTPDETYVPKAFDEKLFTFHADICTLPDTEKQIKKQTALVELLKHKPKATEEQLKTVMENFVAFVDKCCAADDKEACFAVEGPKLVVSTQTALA
- experimentDescription: BSA fluorescence quenching titration
- Type: binding, bovine
- reportedConditions: BSA 3 × 10^−6 M, PBS pH 7.4
- Procedure: BSA stock solution (5 mM) was prepared in 5 mM phosphate buffer (pH 7.4) and then kept at 2–6 °C. The binding mechanism of the Ti(IV) complexes with BSA was established using fluorescence titration at 200–500 nm. Metal complexes with BSA were quenched by tracking changes in the fluorescence intensity at a certain excitation wavelength of 285 nm and emission value at 345 nm, respectively.[52] Identical excitation and emission scan rates and slit widths were employed in all investigations. […]
propertyLabel: KBSA, Stern–Volmer quenching constant

{"compound": "[O-]C(=NN=Cc1cc(F)ccc1[O-])c1ccncc1.[O-]C(=NN=Cc1cc(F)ccc1[O-])c1ccncc1.[Ti+4] [Ti-4-IF]", "experimentalResult": "197000 M⁻¹"}
{"compound": "COc1cccc(C=NN=C([O-])c2ccncc2)c1[O-].COc1cccc(C=NN=C([O-])c2ccncc2)c1[O-].[Ti+4] [Ti-3-IO]", "experimentalResult": "277000 M⁻¹"}
{"compound": "[O-]C(=NN=Cc1cc(Cl)ccc1[O-])c1ccncc1.[O-]C(=NN=Cc1cc(Cl)ccc1[O-])c1ccncc1.[Ti+4] [Ti-5-ICl]", "experimentalResult": "112000 M⁻¹"}
{"compound": "Brc1ccc2c(c1)C=NN=C(c1ccncc1)[O][Ti]1([O]C(c3ccncc3)=NN=Cc3cc(Br)ccc3[O]1)[O]2 (stereo not drawn) [Ti-6-IBr]", "experimentalResult": "85000 M⁻¹"}
{"compound": "[O-]C(=NN=Cc1ccccc1[O-])c1ccncc1.[O-]C(=NN=Cc1ccccc1[O-])c1ccncc1.[Ti+4] [Ti-1-IS]", "experimentalResult": "175000 M⁻¹"}
{"compound": "[O-]C(=NN=Cc1c([O-])ccc2ccccc12)c1ccncc1.[O-]C(=NN=Cc1c([O-])ccc2ccccc12)c1ccncc1.[Ti+4] [Ti-2-IN]", "experimentalResult": "105000 M⁻¹"}

* * *

- measurementTarget: BSA (Bos taurus)
- Construct: purchased Himedia Chemicals
- experimentDescription: BSA site marker (ibuprofen, warfarin) fluorescence quenching
- Format: binding, bovine
- reportedConditions: 298 K, site probe warfarin
Kb binding constant, BSA + Warfarin for assorted molecules

{"molecule": "COc1cccc(C=NN=C([O-])c2ccncc2)c1[O-].COc1cccc(C=NN=C([O-])c2ccncc2)c1[O-].[Ti+4]", "Kb binding constant, BSA + Warfarin [M⁻¹]": 580}
{"molecule": "[O-]C(=NN=Cc1cc(Cl)ccc1[O-])c1ccncc1.[O-]C(=NN=Cc1cc(Cl)ccc1[O-])c1ccncc1.[Ti+4]", "Kb binding constant, BSA + Warfarin [M⁻¹]": 160}
{"molecule": "[O-]C(=NN=Cc1cc(F)ccc1[O-])c1ccncc1.[O-]C(=NN=Cc1cc(F)ccc1[O-])c1ccncc1.[Ti+4]", "Kb binding constant, BSA + Warfarin [M⁻¹]": 400}
{"molecule": "[O-]C(=NN=Cc1c([O-])ccc2ccccc12)c1ccncc1.[O-]C(=NN=Cc1c([O-])ccc2ccccc12)c1ccncc1.[Ti+4]", "Kb binding constant, BSA + Warfarin [M⁻¹]": 690}
{"molecule": "Brc1ccc2c(c1)C=NN=C(c1ccncc1)[O][Ti]1([O]C(c3ccncc3)=NN=Cc3cc(Br)ccc3[O]1)[O]2 (stereo not drawn)", "Kb binding constant, BSA + Warfarin [M⁻¹]": 390}
{"molecule": "[O-]C(=NN=Cc1ccccc1[O-])c1ccncc1.[O-]C(=NN=Cc1ccccc1[O-])c1ccncc1.[Ti+4]", "Kb binding constant, BSA + Warfarin [M⁻¹]": 480}

* * *

n, number of binding sites (BSA) for assorted compounds
- measurementTarget: BSA (Bos taurus, UniProt P02769)
- Construct: purchased Himedia Chemicals
- experimentDescription: BSA fluorescence quenching titration
- Format: binding, bovine
- reportedConditions: Scatchard plot, 298 K
propertyLabel: n, number of binding sites (BSA)

{"compound": "COc1cccc(C=NN=C([O-])c2ccncc2)c1[O-].COc1cccc(C=NN=C([O-])c2ccncc2)c1[O-].[Ti+4]", "experimentalResult": 1.42}
{"compound": "[O-]C(=NN=Cc1cc(Cl)ccc1[O-])c1ccncc1.[O-]C(=NN=Cc1cc(Cl)ccc1[O-])c1ccncc1.[Ti+4]", "experimentalResult": 1.07}
{"compound": "[O-]C(=NN=Cc1c([O-])ccc2ccccc12)c1ccncc1.[O-]C(=NN=Cc1c([O-])ccc2ccccc12)c1ccncc1.[Ti+4]", "experimentalResult": 1.26}
{"compound": "[O-]C(=NN=Cc1cc(F)ccc1[O-])c1ccncc1.[O-]C(=NN=Cc1cc(F)ccc1[O-])c1ccncc1.[Ti+4]", "experimentalResult": 1.60}
{"compound": "[O-]C(=NN=Cc1ccccc1[O-])c1ccncc1.[O-]C(=NN=Cc1ccccc1[O-])c1ccncc1.[Ti+4]", "experimentalResult": 1.31}
{"compound": "Brc1ccc2c(c1)C=NN=C(c1ccncc1)[O][Ti]1([O]C(c3ccncc3)=NN=Cc3cc(Br)ccc3[O]1)[O]2 (stereo not drawn)", "experimentalResult": 1.35}
